Data provenance: PubChem BioAssay

Listed here: items and their measured viability decrease (inhibition).
Test: CellTiter-Glo luminescent readout of SW480 viability loss, NPC library primary (AID 1117343)
Details: CellTiter-Glo luminescence; at 20 µM (top of the series)
Activity calls are given as the source filed them.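 Rule for the calls: active = compounds that lower viability of the colon cancer cells in the luminescence readout, with no numeric limit stated; inactive = the rest.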

Worked examples, 4 molecules total:
COc1c2c(cc3c1OCO3)CCN(C)C2	36.7% (inactive)
c1ccc2c(c1)sc1ccccc12	-1.8% (inactive)
C[C@@H]1O[C@@H](O[C@H]2C[C@@H](O)[C@]3(CO)[C@H]4[C@H](O)C[C@]5(C)[C@@H](C6=CC(=O)OC6)CC[C@]5(O)[C@@H]4CC[C@]3(O)C2)[C@H](O)[C@H](O)[C@H]1O	61% (active)
NCc1cccnc1	1.8% (inactive)

Below: the item to evaluate.
// query Supply viability decrease (inhibition) value. Item: Cc1nnc2n1-c1sc(CCC(=O)N3CCOCC3)cc1C(c1ccccc1Cl)=NC2
// result -4.5% (inactive)
